Ki values, listed per item
Biological target: mouse TAAR1 (Mus musculus (Mouse), UniProt Q923Y8)
Sequence (Q923Y8 whole entry): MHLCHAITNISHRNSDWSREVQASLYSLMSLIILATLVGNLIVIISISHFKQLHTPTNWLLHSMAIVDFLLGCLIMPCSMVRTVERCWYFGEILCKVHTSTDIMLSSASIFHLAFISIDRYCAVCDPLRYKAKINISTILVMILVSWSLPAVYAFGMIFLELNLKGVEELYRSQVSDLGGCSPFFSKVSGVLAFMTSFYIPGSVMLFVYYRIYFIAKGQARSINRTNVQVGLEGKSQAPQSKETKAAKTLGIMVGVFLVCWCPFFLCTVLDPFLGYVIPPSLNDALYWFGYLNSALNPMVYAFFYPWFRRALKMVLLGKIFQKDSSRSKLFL
Experiment: Radioligand binding assay on mouse TAAR1
Settings: membranes of HEK-293 cells stably expressing mouse TAAR1; first value of cell mouse/rat
Structures can show the parent of a compound that is named as a salt.
Only the number, expressed in µM, is required.

Example results:
compound	Ki (µM)
O=C(Nc1ccc([C@@H]2CNCCO2)cc1)c1ccn(-c2ccc(C(F)(F)F)cn2)n1 [Example 35, hydrochloride]	0.0022
Cn1nc(-c2cccc(Cl)c2)cc1C(=O)Nc1ccc([C@H]2CNCCO2)cc1 [Example 17, hydrochloride]	0.0016
N#Cc1ccc(-n2ccc(C(=O)Nc3ccc([C@H]4CNCCO4)cc3)n2)cc1 [Example 34, hydrochloride]	0.0037

Documented Ki of O=C(Nc1ccc([C@H]2CNCCO2)cc1)c1cc(-c2ccc(F)cc2)[nH]n1 [Example 3, hydrochloride] : 0.0008

Lab book: Ki of O=C(Nc1ccc([C@@H]2CNCCO2)cc1)c1cc(-c2ccccc2Cl)n[nH]1 [Example 13, hydrochloride] noted as 0.0008

Briefly, Ki measured for Cc1c(-c2ccccc2)n[nH]c1C(=O)Nc1ccc([C@H]2CNCCO2)cc1 [Example 6, hydrochloride] : 0.0016

What the record says about O=C(Nc1ccc([C@@H]2CNCCO2)cc1)c1ccn(-c2ccc(F)cc2)n1 [Example 31, hydrochloride] : Ki is 0.0013

get_value(item= N#Cc1cccc(-c2cc(C(=O)Nc3ccc([C@H]4CNCCO4)cc3)n[nH]2)c1 [Example 20, hydrochloride] , readout=Ki) returns 0.0022

Quick note, Ki for Cn1nc(-c2ccccc2)cc1C(=O)Nc1ccc([C@@H]2CNCCO2)cc1 [Example 19, hydrochloride] landed at 0.0079

Summary for this compound, N#Cc1cnc(-n2ccc(C(=O)Nc3ccc([C@H]4CNCCO4)cc3)n2)cn1 [Example 53, hydrochloride] : Ki is 0.011

compound O=C(Nc1ccc([C@H]2CNCCO2)cc1)c1cc(-c2ccccc2)[nH]n1 [Example 1, hydrochloride] , Ki observed: 0.0007

response.value for O=C(Nc1ccc([C@H]2CNCCO2)cc1)c1ccn(-c2nccnc2Cl)n1 [Example 49, hydrochloride] (field: Ki) = 0.0142

###

Target: mouse TAAR1 (Mus musculus (Mouse))
Experiment: Radioligand binding assay on mouse TAAR1
Settings: membranes of HEK-293 cells stably expressing mouse TAAR1; first value of cell mouse/rat
Counter-ions that a name gives are not always drawn.
# key: entry, value: Ki
The figure you give is taken to be in µM; do not add the unit.

Illustrative cases are given below, each with its answer.
compound	Ki, µM
O=C(Nc1ccc([C@H]2CNCCO2)cc1)c1ccn(-c2ccc(OC(F)F)cc2)n1 [Example 45, hydrochloride]	0.0018
Cn1nc(-c2ccc(C#N)cc2)cc1C(=O)Nc1ccc([C@H]2CNCCO2)cc1 [Example 21, hydrochloride]	0.0053
Cc1c(C(=O)Nc2ccc([C@H]3CNCCO3)cc2)n[nH]c1-c1cccc(C#N)c1 [Example 27, hydrochloride]	0.0021

Query compound follows.
Entry O=C(Nc1ccc([C@H]2CNCCO2)cc1)c1ccn(-c2ncc(C(F)(F)F)cn2)n1 [Example 47, hydrochloride] — recorded Ki = 0.0198

###

Molecular target: mouse TAAR1 (Mus musculus (Mouse))
pKd: −log10 of the molar value.
measure: pKd

Record for CCN(C[C@H]1COC(N)=N1)c1ccccc1 [reference compound] under target or system mouse TAAR1 (Mus musculus (Mouse)): pKd reported as ~9.15
